# IC50 per record follows
Biological target: recombinant human Nav1.7 (Homo sapiens (Human), UniProt Q15858)
Sequence (Q15858 whole entry): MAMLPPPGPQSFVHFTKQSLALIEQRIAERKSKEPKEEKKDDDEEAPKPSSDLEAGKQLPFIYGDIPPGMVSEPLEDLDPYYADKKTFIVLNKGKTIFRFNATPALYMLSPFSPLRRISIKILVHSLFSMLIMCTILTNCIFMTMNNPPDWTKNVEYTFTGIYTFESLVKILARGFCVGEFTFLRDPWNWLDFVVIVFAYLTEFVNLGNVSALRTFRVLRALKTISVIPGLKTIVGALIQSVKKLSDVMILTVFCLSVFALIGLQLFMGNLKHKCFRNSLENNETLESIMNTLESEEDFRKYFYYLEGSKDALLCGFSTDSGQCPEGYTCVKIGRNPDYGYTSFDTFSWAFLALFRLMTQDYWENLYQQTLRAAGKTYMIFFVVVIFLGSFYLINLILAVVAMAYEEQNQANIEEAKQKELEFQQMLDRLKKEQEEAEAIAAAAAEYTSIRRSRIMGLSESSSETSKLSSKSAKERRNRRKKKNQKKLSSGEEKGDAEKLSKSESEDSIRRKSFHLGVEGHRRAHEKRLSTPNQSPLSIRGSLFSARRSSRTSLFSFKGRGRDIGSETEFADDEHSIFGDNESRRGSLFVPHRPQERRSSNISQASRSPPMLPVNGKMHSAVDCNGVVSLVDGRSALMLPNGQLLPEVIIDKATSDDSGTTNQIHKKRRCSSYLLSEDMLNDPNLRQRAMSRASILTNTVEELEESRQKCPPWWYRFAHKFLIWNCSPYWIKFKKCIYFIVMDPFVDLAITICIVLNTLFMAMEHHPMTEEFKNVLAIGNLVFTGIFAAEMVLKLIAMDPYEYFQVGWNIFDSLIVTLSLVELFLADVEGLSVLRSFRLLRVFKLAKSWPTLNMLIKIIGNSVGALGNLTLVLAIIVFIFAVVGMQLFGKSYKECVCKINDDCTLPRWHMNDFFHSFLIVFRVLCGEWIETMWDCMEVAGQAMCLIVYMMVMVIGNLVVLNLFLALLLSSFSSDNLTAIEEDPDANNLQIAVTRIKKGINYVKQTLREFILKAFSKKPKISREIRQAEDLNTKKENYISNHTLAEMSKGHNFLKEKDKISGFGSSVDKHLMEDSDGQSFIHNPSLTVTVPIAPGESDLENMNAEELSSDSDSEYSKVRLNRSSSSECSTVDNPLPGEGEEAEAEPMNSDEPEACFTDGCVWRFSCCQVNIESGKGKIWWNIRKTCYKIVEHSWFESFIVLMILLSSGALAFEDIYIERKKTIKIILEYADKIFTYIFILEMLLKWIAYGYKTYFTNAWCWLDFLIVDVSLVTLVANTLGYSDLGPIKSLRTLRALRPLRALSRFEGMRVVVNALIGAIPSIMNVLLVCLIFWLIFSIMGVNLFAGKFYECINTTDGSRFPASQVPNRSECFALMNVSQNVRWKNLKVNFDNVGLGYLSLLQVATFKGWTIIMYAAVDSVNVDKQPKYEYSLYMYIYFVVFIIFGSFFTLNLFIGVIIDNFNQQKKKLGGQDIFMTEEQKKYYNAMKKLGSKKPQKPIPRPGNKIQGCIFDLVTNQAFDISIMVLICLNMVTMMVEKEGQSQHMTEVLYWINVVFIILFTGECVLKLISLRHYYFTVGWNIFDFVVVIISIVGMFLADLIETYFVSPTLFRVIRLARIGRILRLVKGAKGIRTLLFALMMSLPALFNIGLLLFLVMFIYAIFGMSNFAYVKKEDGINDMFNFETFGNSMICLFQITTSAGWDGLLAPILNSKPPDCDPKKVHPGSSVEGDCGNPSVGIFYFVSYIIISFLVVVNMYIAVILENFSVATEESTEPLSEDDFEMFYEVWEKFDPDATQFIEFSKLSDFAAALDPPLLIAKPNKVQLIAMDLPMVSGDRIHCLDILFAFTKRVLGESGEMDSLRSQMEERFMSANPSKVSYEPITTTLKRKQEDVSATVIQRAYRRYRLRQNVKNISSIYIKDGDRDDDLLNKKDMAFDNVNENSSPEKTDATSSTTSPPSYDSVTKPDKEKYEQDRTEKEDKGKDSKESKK
Test: FRET-based membrane potential assay, recombinant human sodium channel Nav1.7
Assay type: cell-based
Conditions: FRET-Membrane Potential Nav1.7 IC50
Give just the numeric value; µM need not be written.

The recorded IC50 for entry `O=C(c1ccc2cc(Oc3ccc(C(F)(F)F)cn3)ccc2n1)N1CCN[C@H](CO)C1` equals 3.1

The recorded IC50 for entry `O=C(N[C@H]1C[C@H](O)C1)c1ccc2cc(Oc3ccc(C(F)(F)F)cn3)ccc2n1` equals 3.49

The recorded IC50 for entry `O=C(c1ccc2cc(Oc3ccc(C(F)(F)F)nc3)ccc2n1)N1C[C@@H](O)[C@@H](O)C1` equals 10.1

The recorded IC50 for entry O=C(c1ccc2cc(Oc3ccc(C(F)(F)F)cn3)ccc2n1)N1CCNCC1C(F)F (single isomer, unassigned) equals 2.73

The recorded IC50 for entry O=C(c1ccc2cc(Oc3ccc(C(F)(F)F)cn3)ccc2n1)N1CC[C@@H](O)[C@H](F)C1 (relative stereo) equals 7.6

Then this molecule:
The recorded IC50 for entry `O=C(N[C@H]1C[C@@H](O)C1)c1ccc2cc(Oc3ccc(C(F)(F)F)cn3)ccc2n1` equals 0.841
